Data provenance is a collection of fitness landscapes (doi:10.1016/j.celrep.2020.107928).

B1: Caulobacter ParB omega fusion; a variant is named by its letters at X, in order, B8GW30 (parent)
chain: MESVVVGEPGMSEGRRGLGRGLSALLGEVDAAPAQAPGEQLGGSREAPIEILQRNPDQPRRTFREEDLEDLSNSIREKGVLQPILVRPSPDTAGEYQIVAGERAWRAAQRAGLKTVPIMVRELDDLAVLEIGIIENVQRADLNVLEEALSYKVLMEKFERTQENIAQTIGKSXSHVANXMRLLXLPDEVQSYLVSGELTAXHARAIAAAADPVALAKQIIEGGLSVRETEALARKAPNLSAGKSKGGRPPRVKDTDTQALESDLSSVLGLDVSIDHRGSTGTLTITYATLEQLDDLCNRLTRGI

- Variants of: B1
- protocol.notes: one-hybrid fitness for binding NBS DNA (the Noc-binding site; scaled: cognate 1, non-cognate 0); higher = stronger binding
- measurement.setup: with NBS DNA site
In all, about 81,000 sequences were measured (“one-hybrid fitness for binding NBS DNA”: median about -0.1, highest 2% from about 0.36 on). The sample as a whole holds a higher share of the highest values than the screen did.
endpoint.name: one-hybrid fitness for binding NBS DNA

Some entries whose results are on file:
TKNF
≤ 0.2
QAQN
≤ 0.2
QTQR
0.757
QYQS
0.373
QYQG
≤ 0.2

// query Specify reported one-hybrid fitness for binding NBS DNA for the variant shown: QIQD
// result ≤ 0.2

// query Specify reported one-hybrid fitness for binding NBS DNA for the variant shown: CNSI
// result ≤ 0.2

// query Specify reported one-hybrid fitness for binding NBS DNA for the variant shown: QYQT
// result 0.446

// query Specify reported one-hybrid fitness for binding NBS DNA for the variant shown: QSQR
// result 0.535

// query Specify reported one-hybrid fitness for binding NBS DNA for the variant shown: QTQH
// result 0.346
